# Tested on: SK-BR-3
# assay details: normalised viability (% of control), CellTiter-Blue; higher = more viable cells (about 100 = DMSO control)
# experimental parameters: 1000 nM; incubation time: 72 h
# key: entry, value: normalised viability
readout name: normalised viability (%)

>  <compound>
CC[C@H](CO)Nc1nc(NCc2ccccc2)c2ncn(C(C)C)c2n1 [Roscovitine]

>  <unit spec>
%

>  <readout number>
104

$$$$
>  <compound>
C=CCn1c(=O)c2cnc(Nc3ccc(N4CCN(C)CC4)cc3)nc2n1-c1cccc(C(C)(C)O)n1 [MK1775]

>  <unit spec>
%

>  <readout number>
9.36

$$$$
>  <compound>
CO[C@@H]1[C@H](N(C)C(=O)c2ccccc2)C[C@H]2O[C@]1(C)n1c3ccccc3c3c4c(c5c6ccccc6n2c5c31)C(=O)NC4 [Midostaurin]

>  <unit spec>
%

>  <readout number>
77.4

$$$$
>  <compound>
COc1c2occc2cc2ccc(=O)oc12 [Methoxsalen]

>  <unit spec>
%

>  <readout number>
127

$$$$

----------
# Test system: CAL-120
# assay details: normalised viability (% of control), CellTiter-Blue; higher = more viable cells (about 100 = DMSO control)
# experimental parameters: 1000 nM; incubation time: 72 h

>  <molecule>
Cn1cc(C2=C(c3cn(C4CCN(Cc5ccccn5)CC4)c4ccccc34)C(=O)NC2=O)c2ccccc21

>  <normalised viability, %>
95

$$$$
>  <molecule>
CC(C)C[C@H](NC(=O)[C@@H](COC(C)(C)C)NC(=O)[C@H](Cc1ccc(O)cc1)NC(=O)[C@H](CO)NC(=O)[C@H](Cc1c[nH]c2ccccc12)NC(=O)[C@H](Cc1cnc[nH]1)NC(=O)[C@@H]1CCC(=O)N1)C(=O)N[C@@H](CCCNC(=N)N)C(=O)N1CCC[C@H]1C(=O)NNC(N)=O

>  <normalised viability, %>
93.1

$$$$
>  <molecule>
CNC(=O)c1ccccc1Sc1ccc2c(/C=C/c3ccccn3)n[nH]c2c1

>  <normalised viability, %>
94.7

$$$$
>  <molecule>
C=CCN(/C=C1/C(=O)O[C@H](COC)[C@@]2(C)C1=C(O)C(=O)C1=C2[C@H](OC(C)=O)C[C@]2(C)C(=O)CC[C@@H]12)CC=C

>  <normalised viability, %>
85.9

$$$$
>  <molecule>
COc1ccc(S(=O)(=O)Nc2cccnc2Nc2ccc(O)cc2)cc1

>  <normalised viability, %>
26.8

$$$$

----------
The compounds listed here are annotated with their EC50, CellTiter-Glo.
# Tested on: MDA-MB-468
# experimental parameters: 72 h

>  <compound>
CCN(CC)CCCC(C)Nc1ccnc2cc(Cl)ccc12 (stereo unspecified)

>  <subject of test>
MDA-MB-468

>  <EC50, CellTiter-Glo (nM)>
10600

$$$$
>  <compound>
CC1(C)CCC(c2ccc(Cl)cc2)=C(CN2CCN(c3ccc(C(=O)NS(=O)(=O)c4ccc(N[C@H](CCN5CCOCC5)CSc5ccccc5)c(S(=O)(=O)C(F)(F)F)c4)cc3)CC2)C1

>  <subject of test>
MDA-MB-468

>  <EC50, CellTiter-Glo (nM)>
86.4

$$$$
>  <compound>
O=C(CCCCCCC(=O)Nc1ccccc1)NO

>  <subject of test>
MDA-MB-468

>  <EC50, CellTiter-Glo (nM)>
1200

$$$$
>  <compound>
CO[C@@]12[C@H](COC(N)=O)C3=C(C(=O)C(C)=C(N)C3=O)N1C[C@@H]1N[C@@H]12

>  <subject of test>
MDA-MB-468

>  <EC50, CellTiter-Glo (nM)>
3860

$$$$
>  <compound>
CO[C@@H]1[C@H](N(C)C(=O)c2ccccc2)C[C@H]2O[C@]1(C)n1c3ccccc3c3c4c(c5c6ccccc6n2c5c31)C(=O)NC4

>  <subject of test>
MDA-MB-468

>  <EC50, CellTiter-Glo (nM)>
229

$$$$
>  <compound>
CC1(COc2ccc3c(c2)ncn3-c2ccc3cccc(N4CCC(N)CC4)c3n2)COC1

>  <subject of test>
MDA-MB-468

>  <EC50, CellTiter-Glo (nM)>
4750

$$$$

Sourced from the supplement of paper PMC4862054
